meta.source: patent EP3807270B1

biological target: hTLR7 (Homo sapiens, UniProt Q9NYK1); experiment: HEK293-Blue-hTLR-7 cells assay (SEAP reporter, R848 stimulation); assay type: cell-based; design: host or cells: HEK293 (HEK-Blue); conditions: HEK293-Blue-hTLR7 cells, R848, 20 hrs; read-out: HEK/hTLR7 IC50
Sequence (Q9NYK1 27-1049): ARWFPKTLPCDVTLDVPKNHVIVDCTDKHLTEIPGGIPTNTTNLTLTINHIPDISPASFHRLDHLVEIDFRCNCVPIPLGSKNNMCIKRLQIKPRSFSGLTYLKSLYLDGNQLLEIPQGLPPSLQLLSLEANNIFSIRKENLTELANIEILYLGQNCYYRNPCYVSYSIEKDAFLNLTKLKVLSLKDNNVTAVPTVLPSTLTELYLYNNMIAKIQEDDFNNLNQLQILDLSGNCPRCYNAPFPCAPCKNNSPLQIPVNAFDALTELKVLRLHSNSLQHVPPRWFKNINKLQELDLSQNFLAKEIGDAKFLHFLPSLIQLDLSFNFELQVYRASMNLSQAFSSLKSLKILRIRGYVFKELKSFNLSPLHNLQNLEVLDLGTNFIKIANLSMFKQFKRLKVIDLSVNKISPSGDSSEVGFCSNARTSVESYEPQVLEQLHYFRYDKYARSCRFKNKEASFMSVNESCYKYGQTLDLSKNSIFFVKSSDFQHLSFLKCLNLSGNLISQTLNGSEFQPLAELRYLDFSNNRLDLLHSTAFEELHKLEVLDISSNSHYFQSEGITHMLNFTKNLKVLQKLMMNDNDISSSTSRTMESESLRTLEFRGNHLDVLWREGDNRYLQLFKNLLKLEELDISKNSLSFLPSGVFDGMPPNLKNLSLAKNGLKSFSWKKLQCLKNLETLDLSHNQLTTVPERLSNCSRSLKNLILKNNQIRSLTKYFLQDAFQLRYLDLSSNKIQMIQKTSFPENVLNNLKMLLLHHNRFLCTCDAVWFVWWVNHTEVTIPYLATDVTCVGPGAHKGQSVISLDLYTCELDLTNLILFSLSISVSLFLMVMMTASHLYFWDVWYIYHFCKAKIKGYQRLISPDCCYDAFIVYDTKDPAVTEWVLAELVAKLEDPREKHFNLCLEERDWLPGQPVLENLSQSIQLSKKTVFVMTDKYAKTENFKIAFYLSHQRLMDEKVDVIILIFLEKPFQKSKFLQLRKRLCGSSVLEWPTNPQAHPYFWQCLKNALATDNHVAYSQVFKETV
The compounds listed here are annotated with their pIC50.
On this scale, pIC50 is minus log10 of a concentration expressed in M (mol/L).

Reference set (2 entries):
C[C@@H]1CN(c2ccc(C#N)c3nccnc23)C[C@H](CN2CCN(c3cc4c(cn3)C[C@H](C)NC4)CC2)O1 (single isomer, unassigned) [Example 81]; 8.30
C[C@@H]1CN(c2ccc(C#N)c3ncsc23)C[C@H](CN2CCN(c3cnc4c(c3)CNC4)CC2)O1 [Example 8]; 8.00

Q: Entry C[C@@H]1CN(c2ccc(C#N)c3ncccc23)C[C@H](CN2CCN(c3ccc4c(c3)CCNC4)CC2)O1 [Example 5] needs its pIC50 filled in; supply it.
A: 7.51

Q: Entry C[C@@H]1CN(c2ccc(C#N)c3ncccc23)C[C@H](CN2CCN(c3cc4c(cn3)CNC4)CC2)O1 [Example 18] needs its pIC50 filled in; supply it.
A: 8.05

---

assay: Human microsome stability assay; assay type: in vitro ADME; conditions: 1 µM test compound, 0.5 mg/mL liver microsomal protein, 37 °C
Would you please tag the item 1 when its Clearance of Human microsome is 7 mL/min/kg or above, and 0 when it is below?

Answered examples (4):
C[C@@H]1CN(c2ccc(C#N)c3nccnc23)C[C@H](CN2CCN(c3cc4c(cn3)CCNC4)CC2)O1; 0
C[C@@H]1CN(c2ccc(C#N)c3ncccc23)C[C@H](CN2CCN(c3ccc(Cl)cc3)CC2)O1 [Example R2, reference compound]; 1
C[C@@H]1Cc2cnc(N3CCN(C[C@H]4CN(c5ccc(C#N)c6ncccc56)C[C@@H](C)O4)CC3)cc2CN1 (single isomer, unassigned); 0
[2H]c1nc2c(C#N)ccc(N3C[C@H](CN4CCN(c5ccc6c(n5)CN[C@@H]6C)CC4)O[C@H](C)C3)c2nc1[2H] (single isomer, unassigned); 0

Q: Reported Clearance of Human microsome at or above 7 mL/min/kg? C[C@@H]1CN(c2ccc(C#N)c3ncccc23)C[C@H](CN2CCN(c3ccccn3)CC2)O1 [ER-888285, reference compound]
A: 1

Q: Reported Clearance of Human microsome at or above 7 mL/min/kg? C[C@@H]1CN(c2ccc(C#N)c3ncccc23)C[C@H](CN2CCN(c3cc4c(cn3)CCN[C@@H]4C)CC2)O1 (single isomer, unassigned)
A: 1

Q: Reported Clearance of Human microsome at or above 7 mL/min/kg? `C[C@@H]1CN(c2ccc(C#N)c3ncccc23)C[C@H](CN2CC3COCC(C2)N3c2cnc3c(c2)CNC3)O1`
A: 0

Q: Reported Clearance of Human microsome at or above 7 mL/min/kg? `CCn1c(=O)cc(N2C[C@H](CN3CCN(c4ccc5c(n4)CN[C@@H]5C)CC3)O[C@H](C)C2)c2cccnc21`
A: 0

Q: Reported Clearance of Human microsome at or above 7 mL/min/kg? C[C@@H]1CN(c2ccc(C#N)c3ncccc23)C[C@H](CN2CCN(c3ccc4c(c3)CNC4)C(CO)C2)O1 (stereo partly drawn)
A: 1

Q: Reported Clearance of Human microsome at or above 7 mL/min/kg? `C[C@@H]1CN(c2ccc(C#N)c3ncccc23)C[C@H](CN2CCN(c3cnc4c(c3)CCNC4)CC2)O1`
A: 0

Q: Reported Clearance of Human microsome at or above 7 mL/min/kg? C[C@@H]1Cc2cnc(N3CCN(C[C@H]4CN(c5ccc(C#N)c6nccnc56)C[C@@H](C)O4)CC3)cc2CN1 (single isomer, unassigned)
A: 1
